target_under_test: D(1A) dopamine receptor (Rattus norvegicus)
Sequence (P18901 whole entry): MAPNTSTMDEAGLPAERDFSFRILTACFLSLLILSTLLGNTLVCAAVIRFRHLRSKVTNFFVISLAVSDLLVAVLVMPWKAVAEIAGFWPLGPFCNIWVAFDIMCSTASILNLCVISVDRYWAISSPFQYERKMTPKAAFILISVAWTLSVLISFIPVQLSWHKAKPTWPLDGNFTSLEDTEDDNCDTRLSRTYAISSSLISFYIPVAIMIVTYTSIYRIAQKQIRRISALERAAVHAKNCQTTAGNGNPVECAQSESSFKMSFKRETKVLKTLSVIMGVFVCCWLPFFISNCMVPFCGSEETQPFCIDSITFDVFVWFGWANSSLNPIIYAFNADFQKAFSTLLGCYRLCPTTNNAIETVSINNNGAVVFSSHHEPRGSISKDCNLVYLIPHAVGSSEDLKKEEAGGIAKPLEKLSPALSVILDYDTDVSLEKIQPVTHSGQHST
assay_method_text: Binding affinity against dopamine receptor D1 using radioligand ([3H]-SCH 23390) binding assay
readout_type: Ki

Query: Missing value: Ki, D(1A) dopamine receptor (Rattus norvegicus), entry "Nc1ccc(C#CCCN2CC=C(c3ccccc3)CC2)cc1" . Fill in?
Response: > 10 µM

* * *

For each record, write down the corresponding ED50.
Test system: Mus musculus
assay_method_text: Compound was tested for the inhibition of locomotor activity (LMA)by administering Intraperitoneally in mouse.
Assay type: functional
settings: ip
Answers are plain numbers, in mg/kg.

Query: Item "Oc1ccc(C#CCCN2CC=C(c3ccccc3)CC2)cc1" has what recorded ED50?
Response: 1.5

Now look at this entry.
Query: Item "C(#Cc1ccc2c(c1)OCCO2)CCN1CC=C(c2ccccc2)CC1" has what recorded ED50?
Response: 2.2

* * *

target_under_test: D(2) dopamine receptor (Rattus norvegicus)
assay_method_text: Compound was evaluated for their affinity against dopamine receptor D2 by displacing [3H]-spiperone in rat striatal membrane
Format: cell membranes, Striatum
pKi: −log10 of the molar value.
The label depends only on pKi: met if it is at least 7, not met if it is smaller.

Below, 3 compounds whose answers are already recorded.
Query: Check the entry "Nc1ccc(C#CCCN2CC=C(c3ccccc3)CC2)cc1" : does pKi equal or exceed 7?
Response: met

Query: Check the entry "Nc1ccccc1C#CCCN1CC=C(c2ccccc2)CC1" : does pKi equal or exceed 7?
Response: not met

Query: Check the entry "C(#Cc1ccccc1)CCN1CC=C(c2ccccc2)CC1" : does pKi equal or exceed 7?
Response: not met

Here is the next item to consider.
Query: Check the entry "Oc1ccc(C#CCCN2CC=C(c3ccccc3)CC2)cc1" : does pKi equal or exceed 7?
Response: met

* * *

target_under_test: D(2) dopamine receptor (Rattus norvegicus)
assay_method_text: Binding affinity at Dopamine receptor D2 in rat striatal membrane by [3H]spiperone displacement.
Type: cell membranes, Striatum
Threshold 40 nM: Ki strictly smaller gives satisfied, otherwise not satisfied.

Below, 5 compounds whose answers are already recorded.
Query: Does the reported Ki of the following compound sit strictly below 40 nM? "C(#Cc1cnc2ccccc2c1)CCN1CC=C(c2ccccc2)CC1"
Response: satisfied

Query: Does the reported Ki of the following compound sit strictly below 40 nM? "Fc1ccc(N2CCN(CCC#Cc3cccnc3)CC2)cc1"
Response: not satisfied

Query: Does the reported Ki of the following compound sit strictly below 40 nM? "Nc1ccc(C#CCCN2CC=C(c3ccccc3)CC2)cn1"
Response: satisfied

Query: Does the reported Ki of the following compound sit strictly below 40 nM? "C(#Cc1cccnc1)CCN1CC=C(c2ccccc2)CC1"
Response: satisfied

Query: Does the reported Ki of the following compound sit strictly below 40 nM? "COc1ccc(C#CCCN2CC=C(c3ccccc3)CC2)cc1"
Response: not satisfied

Here is the next item to consider.
Query: Does the reported Ki of the following compound sit strictly below 40 nM? "Oc1ccc2[nH]cc(CCCCN3CC=C(c4ccccc4)CC3)c2c1"
Response: satisfied

* * *

target_under_test: 5-hydroxytryptamine receptor 1A (Rattus norvegicus, UniProt P19327)
Sequence (P19327 whole entry): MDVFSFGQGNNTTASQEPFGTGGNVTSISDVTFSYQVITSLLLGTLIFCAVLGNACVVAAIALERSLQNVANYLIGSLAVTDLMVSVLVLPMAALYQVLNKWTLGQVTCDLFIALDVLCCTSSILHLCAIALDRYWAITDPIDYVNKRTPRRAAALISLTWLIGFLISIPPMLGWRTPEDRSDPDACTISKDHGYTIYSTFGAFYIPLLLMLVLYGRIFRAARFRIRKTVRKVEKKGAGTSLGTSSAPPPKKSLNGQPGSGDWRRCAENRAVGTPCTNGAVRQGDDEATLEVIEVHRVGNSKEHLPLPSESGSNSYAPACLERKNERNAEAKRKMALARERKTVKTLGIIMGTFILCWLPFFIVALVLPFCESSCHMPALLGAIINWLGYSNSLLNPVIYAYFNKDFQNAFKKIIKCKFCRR
assay_method_text: Binding affinity against serotonin 5-hydroxytryptamine 1A receptor using radioligand [3H]8-OH-DPAT binding assay
readout_type: Ki (nM)
Numbers only, in nM.

List the reported Ki of each compound below.
1. Nc1ccc(C#CCCN2CC=C(c3ccccc3)CC2)nc1
2. C(#Cc1ccncc1)CCN1CC=C(c2ccccc2)CC1
3. C(#Cc1cccnc1)CCN1CC=C(c2ccccc2)CC1
4. Nc1ccc(C#CCCN2CC=C(c3ccccc3)CC2)cn1

Response:
1: 69; 2: 593; 3: 555; 4: 632

* * *

target_under_test: D(2) dopamine receptor (Rattus norvegicus, UniProt P61169)
Sequence (P61169 whole entry): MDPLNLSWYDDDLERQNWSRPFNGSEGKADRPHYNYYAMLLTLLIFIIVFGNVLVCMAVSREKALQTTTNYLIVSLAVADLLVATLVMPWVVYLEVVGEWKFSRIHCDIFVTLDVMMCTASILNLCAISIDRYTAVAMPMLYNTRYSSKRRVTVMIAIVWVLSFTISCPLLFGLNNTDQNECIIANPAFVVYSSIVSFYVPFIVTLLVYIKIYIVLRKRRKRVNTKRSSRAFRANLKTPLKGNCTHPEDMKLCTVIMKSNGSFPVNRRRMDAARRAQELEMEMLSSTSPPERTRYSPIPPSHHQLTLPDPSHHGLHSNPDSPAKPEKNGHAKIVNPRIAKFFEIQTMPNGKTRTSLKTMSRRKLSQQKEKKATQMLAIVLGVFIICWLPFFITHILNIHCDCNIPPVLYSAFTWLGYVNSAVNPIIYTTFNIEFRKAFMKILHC
assay_method_text: Binding affinity at Dopamine receptor D2 in rat striatal membrane by [3H]spiperone displacement.
Format: cell membranes, Striatum
readout_type: Ki
Enter the number, and then the unit.

List the reported Ki of each compound below.
1. C(#Cc1ccccn1)CCN1CC=C(c2ccccc2)CC1
2. C(#Cc1cncc2ccccc12)CCN1CC=C(c2ccccc2)CC1
3. C(#Cc1ccc2c(c1)OCCO2)CCN1CC=C(c2ccccc2)CC1
4. Nc1ccc(C#CCCN2CC=C(c3ccccc3)CC2)nc1

Response:
1: 0.136 µM; 2: 0.073 µM; 3: 0.127 µM; 4: 0.063 µM
